Assayed target: human LPAR1 (Homo sapiens)
Construct: host or cells: TangoEDG2-bla U2OS cells
Procedure summary: Arrestin assay (Arrestin Reporter EDG2-bla U2OS), inhibition of LPA-stimulated signal
Type: cell-based
Condition set: TangoEDG2-bla U2OS cells expressing human LPAR1; 0.25 μM LPA; read-out: Arrestin Reporter EDG2-bla U2OS Human Merged IC50
Measured parameter: IC50 (nM)

COC1(C(=O)O)CC(N2CCC(C(=O)Nc3ccc(Cl)cc3OC(F)F)(n3nccc3C(C)C)CC2)C1 (stereo not shown)    87.7
CCC(=O)N1CC[C@](CN2CCC(C(=O)Nc3ccc(Cl)cc3OC(F)F)(n3nccc3C(C)C)CC2)(C(=O)O)C1    80.9
CC(C)c1ccnn1C1(C(=O)Nc2ccc(Cl)cc2OC(F)F)CCN(CCC(C)(C)C(=O)O)CC1    50.3
CC(C)c1ccnn1C1(C(=O)Nc2ccc(Cl)cc2OC(F)F)CCN(C[C@@H](C(=O)O)C2CCOCC2)CC1 (single isomer, unassigned)    33.9
CC(C)c1ccnn1C1(C(=O)Nc2ccc(Cl)cc2OC(F)F)CCN(C[C@@]2(C(=O)O)CCOC2)CC1    24.7
CC(C)c1ccnn1C1(C(=O)Nc2ccc(Cl)cc2OC(F)F)CCN(C[C@@H](C(=O)O)[C@@H](C)O)CC1    47.9
CC(C)c1ccnn1C1(C(=O)Nc2ccc(Cl)cc2OC(F)F)CCN(CC2(C(=O)O)CC2)CC1    65.5

* * *

Assayed target: human LPAR1 (Homo sapiens)
Construct: host or cells: TangoEDG2-bla U2OS cells
Procedure summary: Arrestin assay (Arrestin Reporter EDG2-bla U2OS), inhibition of LPA-stimulated signal
Format: cell-based
Condition set: TangoEDG2-bla U2OS cells expressing human LPAR1; 0.25 μM LPA; read-out: Arrestin Reporter EDG2-bla U2OS Human Merged IC50
Description: The inhibitory activity of compounds 15, 62, 77, 84 and 169 against LPAR1 was measured using an Arrestin assay in U2OS cells expressing human LPAR1. FreeStyle media was warmed in a 37° C. water bath. Cryo-preserved vial(s) of TangoEDG2-bla U2OS cells were rapidly thawed in a 37° C. water bath. […] Plate(s) were read on an Envision Plate Reader (Perkin Elmer) to read fluorescence; excitation at 409 nm with emission at 460 nm and 530 nm. […]
pIC50: −log10 of the molar value.
Measured parameter: pIC50

CCC(=O)N1CCC(CN2CCC(C(=O)Nc3ccc(Cl)cc3OC(F)F)(n3ncc(OC)c3C(C)C)CC2)(C(=O)O)CC1 [Compound 98]    6.92
CC(C)c1ccnn1C1(C(=O)Nc2ccc(Cl)cc2OC(F)F)CCN(CC2(C(=O)O)CCN(C(=O)C34CC(C)(C3)C4)CC2)CC1 [Compound 79]    7.80
CC(C)c1ccnn1C1(C(=O)Nc2ccc(Cl)cc2OC(F)F)CCN([C@H]2CO[C@H](C(=O)O)C2)CC1 (single isomer, unassigned) [Compound 140]    6.88
CC(C)c1ccnn1C1(C(=O)Nc2ccc(Cl)cc2OC(F)F)CCN([C@H]2C[C@](C(=O)O)(C(F)(F)F)C2)CC1 [Compound 108]    7.25
CC(C)c1ccnn1C1(C(=O)Nc2ccc(Cl)cc2OC(F)F)CCN(CC(CN2CCOC(F)(F)C2)C(=O)O)CC1 (stereo not drawn) [Compound 237]    7.78
CO[C@]1(C(=O)O)C[C@@H](N2CCC(C(=O)Nc3ccc(Cl)cc3OC(F)F)(n3ncc(F)c3C(C)C)CC2)C1 [Compound 204]    7.33

* * *

The molecules listed here are annotated with their pIC50.
Assayed target: human LPAR1 (Homo sapiens, UniProt Q92633)
Construct: host or cells: TangoEDG2-bla U2OS cells
Sequence (Q92633 whole entry): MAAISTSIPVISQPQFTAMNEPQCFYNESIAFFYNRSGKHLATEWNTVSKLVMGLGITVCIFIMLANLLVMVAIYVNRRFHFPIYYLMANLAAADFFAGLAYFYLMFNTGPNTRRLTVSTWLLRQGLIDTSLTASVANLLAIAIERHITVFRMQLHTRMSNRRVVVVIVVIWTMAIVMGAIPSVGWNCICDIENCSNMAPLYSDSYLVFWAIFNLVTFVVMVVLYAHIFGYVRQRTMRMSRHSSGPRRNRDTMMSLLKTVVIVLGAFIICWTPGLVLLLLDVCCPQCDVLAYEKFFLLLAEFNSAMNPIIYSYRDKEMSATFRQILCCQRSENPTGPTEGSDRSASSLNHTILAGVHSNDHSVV
Procedure summary: Arrestin assay (Arrestin Reporter EDG2-bla U2OS), inhibition of LPA-stimulated signal
Format: cell-based
Condition set: TangoEDG2-bla U2OS cells expressing human LPAR1; 0.25 μM LPA; read-out: Arrestin Reporter EDG2-bla U2OS Human Merged IC50
pIC50: −log10 of the molar value.
Measured parameter: pIC50

CC(C)c1ccnn1C1(C(=O)Nc2ccc(Cl)cc2OC(F)F)CCN([C@H]2C[C@@](C#N)(C(=O)O)C2)CC1    6.51
CC(C)c1ccnn1C1(C(=O)Nc2ccc(Cl)cc2OC(F)F)CCN(CC(C(=O)O)C2COCCOC2)CC1 (stereo not shown)    7.46
CC(C)c1ccnn1C1(C(=O)Nc2ccc(Cl)cc2OC(F)F)CCN(CC2(C(=O)O)CCCCO2)CC1 (stereo not shown)    7.90
CC(C)c1ccnn1C1(C(=O)Nc2ccc(Cl)cc2OC(F)F)CCN(C(=N)[C@@H]2C[C@@H]2C(=O)O)CC1    7.63
CC(C)c1ccnn1C1(C(=O)Nc2ccc(Cl)cc2OC(F)F)CCN(C[C@@H](C(=O)O)N2CCOC(C)(C)C2)CC1    6.86
COc1ccc(C(CN2CCC(C(=O)Nc3ccc(Cl)cc3OC(F)F)(n3nccc3C(C)C)CC2)C(=O)O)cc1 (stereo not shown)    8.02
CC(C)COC(=O)N1CCC(CN2CCC(C(=O)Nc3ccc(Cl)cc3OC(F)F)(n3nccc3C(C)C)CC2)(C(=O)O)CC1    8.23

* * *

Assayed target: human LPAR1 (Homo sapiens, UniProt Q92633)
Construct: host or cells: TangoEDG2-bla U2OS cells
Procedure summary: Arrestin assay (Arrestin Reporter EDG2-bla U2OS), inhibition of LPA-stimulated signal
Format: cell-based
Condition set: TangoEDG2-bla U2OS cells expressing human LPAR1; 0.25 μM LPA; read-out: Arrestin Reporter EDG2-bla U2OS Human Merged IC50
Values of IC50 strictly less than 30 nM map to 1.0, and values of at least 30 nM map to 0.0.

COCC[C@H](CN1CCC(C(=O)Nc2ccc(Cl)cc2OC(F)F)(n2ncc(F)c2C(C)C)CC1)C(=O)O    0.0
CC(C)c1ccnn1C1(C(=O)Nc2ccc(Cl)cc2OC(F)F)CCN([C@H]2C[C@@](C(=O)O)(C(F)F)C2)CC1    0.0
CC(C)c1ccnn1C1(C(=O)Nc2ccc(Cl)cc2OC(F)F)CCN(CC(=O)O)CC1    0.0
COC[C@@H](CN1CCC(C(=O)Nc2ccc(Cl)cc2OC(F)F)(n2ncc3c2C(C)(C)OC3)CC1)C(=O)O    0.0
CO[C@H]1C[C@H]([C@@H](CN2CCC(C(=O)Nc3ccc(Cl)cc3OC(F)F)(n3nccc3C(C)C)CC2)C(=O)O)C1    1.0
CC(C)c1ccnn1C1(C(=O)Nc2ccc(Cl)cc2OC(F)F)CCN(CC2(C(=O)O)CCCC2)CC1    1.0
COCC1(C(=O)N2CCC(CN3CCC(C(=O)Nc4ccc(Cl)cc4OC(F)F)(n4nccc4C(C)C)CC3)(C(=O)O)CC2)CCC1    1.0

* * *

The entries below come with measured IC50 values attached.
Assayed target: human LPAR1 (Homo sapiens, UniProt Q92633)
Construct: host or cells: TangoEDG2-bla U2OS cells
Procedure summary: Arrestin assay (Arrestin Reporter EDG2-bla U2OS), inhibition of LPA-stimulated signal
Format: cell-based
Condition set: TangoEDG2-bla U2OS cells expressing human LPAR1; 0.25 μM LPA; read-out: Arrestin Reporter EDG2-bla U2OS Human Merged IC50
Measured parameter: IC50 (nM)

COc1cccc([C@H](CN2CCC(C(=O)Nc3ccc(Cl)cc3OC(F)F)(n3nccc3C(C)C)CC2)C(=O)O)c1 (single isomer, unassigned) [Compound 32]    3.11
CO[C@H]1C[C@H]([C@H](CN2CCC(C(=O)Nc3ccc(Cl)cc3OC(F)F)(n3nccc3C(C)C)CC2)C(=O)O)C1 [Compound 229]    29.2
CC(C)c1ccnn1C1(C(=O)Nc2ccc(Cl)cc2OC(F)F)CCN(Cc2c(C(=O)O)nnn2C)CC1 [Compound 179]    174
CC(C)c1ccnn1C1(C(=O)Nc2ccc(Cl)cc2OC(F)F)CCN(CC2(C(=O)O)CCN(C(=O)OCc3ccccc3)CC2)CC1 [Compound 8]    3.31
CC(C)c1ccnn1C1(C(=O)Nc2ccc(Cl)cc2OC(F)F)CCN([C@H]2C[C@](O)(C(=O)O)C2)CC1 [Compound 164]    72.4
CC(C)c1ccnn1C1(C(=O)Nc2ccc(Cl)cc2OC(F)F)CCN(C[C@@H](C(=O)O)N2C[C@@H](C)O[C@H](C)C2)CC1 [Compound 160]    86.9
CC(C)c1ccnn1C1(C(=O)Nc2ccc(Cl)cc2OC(F)F)CCN(C[C@](C)(O)C(=O)O)CC1 [Compound 236]    64.8
CC(C)c1ccnn1C1(C(=O)Nc2ccc(Cl)cc2OC(F)F)CCN(C[C@]2(C(=O)O)CC[C@](C)(O)CC2)CC1 [Compound 175]    122
CC(C)c1ccnn1C1(C(=O)Nc2ccc(Cl)cc2OC(F)F)CCN(CC(C(=O)O)C(C)O)CC1 (centres unmarked) [Compound 203]    66.6
COCC[C@H](CN1CCC(C(=O)Nc2ccc(Cl)cc2OC(F)F)(n2nccc2C(C)C)CC1)C(=O)O [Compound 157]    53.2
CCC(=O)N1CCC(CN2CCC(C(=O)Nc3ccc(Cl)cc3OC(F)F)(n3nccc3C(C)C)CC2)(C(=O)O)CC1 [Compound 41]    22.8
CC(C)c1ccnn1C1(C(=O)Nc2ccc(Cl)cc2OC(F)F)CCN([C@H]2CO[C@@H](C(=O)O)C2)CC1 [Compound 139]    53.7
CC(C)c1ccnn1C1(C(=O)Nc2ccc(Cl)cc2OC(F)F)CCN(CC(C)(C(=O)O)C2CCOCC2)CC1 (centres unmarked) [Compound 52]    70.5
CC(C)c1ccnn1C1(C(=O)Nc2ccc(Cl)cc2OC(F)F)CCN(CC2(C(=O)O)CCN(C(=O)C34CC(C(C)C)(C3)C4)CC2)CC1 [Compound 57]    6.83
COc1cnn([C@H](CN2CCC(C(=O)Nc3ccc(Cl)cc3OC(F)F)(n3nccc3C(C)C)CC2)C(=O)O)c1 [Compound 224]    31.1
CCC(=O)N1CC(CN2CCC(C(=O)Nc3ccc(Cl)cc3OC(F)F)(n3nccc3C(C)C)CC2)(C(=O)O)C1 [Compound 64]    51.5
CC(C)c1ccnn1C1(C(=O)Nc2ccc(Cl)cc2OC(F)F)CCN([C@H]2C[C@@]3(C[C@H]3C(=O)O)C2)CC1 (relative stereo) [Compound 106]    48.1
CC(C)c1ccnn1C1(C(=O)Nc2ccc(Cl)cc2OC(F)F)CCN(CC2(C(=O)O)[C@@H]3COC[C@@H]32)CC1 (some centres unmarked) [Compound 177]    92.5
COC1(C(=O)O)CC(N2CCC(C(=O)Nc3ccc(Cl)cc3OC(F)F)(n3ncc(F)c3C(C)C)CC2)C1 (centres unmarked) [Compound 199]    40.4
CC(C)c1ccnn1C1(C(=O)Nc2ccc(Cl)cc2OC(F)F)CCN(CC2(C(=O)O)CCN(C(=O)OCC(C)(C)C)CC2)CC1 [Compound 90]    5.54
CC1CCc2cnn(C3(C(=O)Nc4ccc(Cl)cc4OC(F)F)CCN([C@H]4C[C@@H](C(=O)O)C4)CC3)c21 (some centres unmarked) [Compound 104]    44.7
CC1(C)OCc2cnn(C3(C(=O)Nc4ccc(Cl)cc4OC(F)F)CCN(C[C@H](C(=O)O)C4CCOCC4)CC3)c21 [Compound 176]    95.5
COCCC(CN1CCC(C(=O)Nc2ccc(Cl)cc2OC(F)F)(n2ncc(F)c2C(C)C)CC1)C(=O)O (centres unmarked) [Compound 188]    38.3
CCOC(=O)N1CCC(CN2CCC(C(=O)Nc3ccc(Cl)cc3OC(F)F)(n3ncc(OC)c3C(C)C)CC2)(C(=O)O)CC1 [Compound 99]    32.1
CCOC(=O)N1CC[C@@](CN2CCC(C(=O)Nc3ccc(Cl)cc3OC(F)F)(n3nccc3C(C)C)CC2)(C(=O)O)C1 [Compound 55]    4.57
CC(C)c1ccnn1C1(C(=O)Nc2ccc(Cl)cc2OC(F)F)CCN(C2COC(C(=O)O)C2)CC1 (centres unmarked) [Compound 113]    141
